The entries below come with measured kon values attached.
# Test System: T1, monovalent human Trop2-ECD antigen (human, UniProt P09758 27-274)
# T1 construct: also called human Trop2-ECD (Extracellular Domain)
# T1 sequence: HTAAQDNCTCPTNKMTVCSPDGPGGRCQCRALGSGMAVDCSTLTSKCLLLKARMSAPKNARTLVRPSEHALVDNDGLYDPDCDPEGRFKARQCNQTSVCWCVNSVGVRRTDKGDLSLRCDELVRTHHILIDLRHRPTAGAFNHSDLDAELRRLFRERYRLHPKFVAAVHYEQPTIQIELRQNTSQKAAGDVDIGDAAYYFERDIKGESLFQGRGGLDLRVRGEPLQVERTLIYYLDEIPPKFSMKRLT
# Method Summary: SPR (ProteOn XPR36), amine-coupled Fab, monovalent human Trop2-ECD as analyte, 25 C;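 further: GLC sensor chip, 3 min association then 15 min buffer dissociation, kinetics fit with a 1:1 Langmuir model, buffer of 10 mM sodium phosphate with 150 mM NaCl and 0.05% Tween-20 at pH 7.4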

# Binder, kon
records = [
    ("h7E6_SVG22 Fab (Fab, V domains shown, also called DA (h7E6_SVG22)) VH: QVQLQESGPGLVKPSETLSLTCTVSGGSISSYGVHWIRQPPGKGLEWIGVIWTSGVTDYNSALMGRVTISVDTSKNQFSLKLSSVTAADTAVYYCARDADYDRYTMDYWGQGTLVTVSS VL: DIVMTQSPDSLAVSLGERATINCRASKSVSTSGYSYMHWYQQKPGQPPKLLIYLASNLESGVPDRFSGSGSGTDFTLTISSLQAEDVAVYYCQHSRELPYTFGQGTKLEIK", "< 180000 M⁻¹ s⁻¹"),
    ("h7E6_SVG Fab (Fab, V domains shown, also called DG (h7E6_SVG)) VH: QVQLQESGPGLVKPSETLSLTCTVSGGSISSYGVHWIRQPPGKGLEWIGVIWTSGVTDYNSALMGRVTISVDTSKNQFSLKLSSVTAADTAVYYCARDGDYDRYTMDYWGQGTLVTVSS VL: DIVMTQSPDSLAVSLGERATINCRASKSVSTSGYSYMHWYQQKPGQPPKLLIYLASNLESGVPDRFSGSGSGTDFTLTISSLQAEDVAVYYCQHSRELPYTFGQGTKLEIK", "170000 M⁻¹ s⁻¹"),
    ("h7E6_SVG28 Fab (Fab, V domains shown, also called DL (h7E6_SVG28)) VH: QVQLQESGPGLVKPSETLSLTCTVSGGSISSYGVHWIRQPPGKGLEWIGVIWTSGVTDYNSALMGRVTISVDTSKNQFSLKLSSVTAADTAVYYCARDLDYDRYTMDYWGQGTLVTVSS VL: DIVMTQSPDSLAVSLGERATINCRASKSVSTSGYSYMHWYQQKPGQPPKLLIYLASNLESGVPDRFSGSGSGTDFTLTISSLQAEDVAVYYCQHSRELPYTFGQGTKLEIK", "< 210000 M⁻¹ s⁻¹"),
    ("h7E6_SVG20 Fab (Fab, V domains shown, also called DK (h7E6_SVG20)) VH: QVQLQESGPGLVKPSETLSLTCTVSGGSISSYGVHWIRQPPGKGLEWIGVIWTSGVTDYNSALMGRVTISVDTSKNQFSLKLSSVTAADTAVYYCARDKDYDRYTMDYWGQGTLVTVSS VL: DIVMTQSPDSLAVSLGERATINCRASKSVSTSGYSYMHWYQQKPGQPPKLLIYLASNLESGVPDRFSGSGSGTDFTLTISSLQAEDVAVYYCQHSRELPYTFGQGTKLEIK", "< 170000 M⁻¹ s⁻¹"),
    ("h7E6_SVG30 Fab (Fab, V domains shown, also called DE (h7E6_SVG30)) VH: QVQLQESGPGLVKPSETLSLTCTVSGGSISSYGVHWIRQPPGKGLEWIGVIWTSGVTDYNSALMGRVTISVDTSKNQFSLKLSSVTAADTAVYYCARDEDYDRYTMDYWGQGTLVTVSS VL: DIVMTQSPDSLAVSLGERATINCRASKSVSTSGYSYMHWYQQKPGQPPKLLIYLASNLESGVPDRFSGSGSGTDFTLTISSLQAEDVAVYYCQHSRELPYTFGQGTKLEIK", "< 850000 M⁻¹ s⁻¹"),
    ("h7E6_SVG19 Fab (Fab, V domains shown, also called DS (h7E6_SVG19)) VH: QVQLQESGPGLVKPSETLSLTCTVSGGSISSYGVHWIRQPPGKGLEWIGVIWTSGVTDYNSALMGRVTISVDTSKNQFSLKLSSVTAADTAVYYCARDSDYDRYTMDYWGQGTLVTVSS VL: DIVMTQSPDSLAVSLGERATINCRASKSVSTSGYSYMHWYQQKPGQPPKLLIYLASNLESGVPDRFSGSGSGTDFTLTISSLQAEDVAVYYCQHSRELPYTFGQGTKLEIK", "< 600000 M⁻¹ s⁻¹"),
]
